subjectOfTest: T1, Mcl-1, Q07820
T1 chain: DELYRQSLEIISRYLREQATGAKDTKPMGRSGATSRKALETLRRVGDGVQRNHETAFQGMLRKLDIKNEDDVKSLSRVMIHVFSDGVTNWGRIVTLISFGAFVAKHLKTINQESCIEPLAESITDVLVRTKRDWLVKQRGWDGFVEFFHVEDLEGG
methodNotes: peptide SPOT array, c-Myc-tagged receptor at 1 uM or 100 nM, anti-c-Myc-Cy3
Label key: condition met means SPOT signal as a fraction of Bim BH3's signal on the same receptor and array under 0.04; condition not met means SPOT signal as a fraction of Bim BH3's signal on the same receptor and array of 0.04 or more.

Worked cases, answers included:
PPDAHVLGKADEAAGQDFSLDLRSTG [CIITA] :: condition met
DATHDEAVQALKRAGKEVLLEVKYMR [SNTB1] :: condition met
PDKRLTLSQIYQYVADNFPFYNKSKA [FOXI1] :: condition not met

Here's the next entry for you.
I'd appreciate it if you could check whether SMRRNAMGVGLVFEADLFTTRHISHW [DNAH10] has SPOT signal as a fraction of Bim BH3's signal on the same receptor and array smaller than 0.04.
condition not met
